Please provide measured Affinity change for the entries that follow.
# system: T1, EGFR-Fc fusion protein (recombinant EGFR extracellular region-Fc) (human, UniProt P00533 25-645)
# T1 construct: extracellular domain; not shown: Fc part supplied by vector pABG1
# assay method text: BLI ForteBio QKe, biotinylated EGFR-Fc on streptavidin sensor, antibody 20 nM; fold reduction of affinity, parent Ame55 = 1;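 also: parent antibody affinity set as 1, with values giving the fold drop in affinity of each mutant antibody relative to that parent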

Completed entries (count: 4):
What value of Affinity change has been reported for the following binder? Ame55 mutant, heavy chain 100A (antibody, V domains shown, Mutant of Ame55) VH: EVQLVQSGAEVKKPGESLKISCKGSGYSFTSYWIGWVRQMPGKGLEWMGIIYPGDSDTRYSPSFQGQVTISADKSISTAYLQWSSLKASDTAMYYCARGAIYPSNVAVWGQGTLVTVSS VL: SYELTQPPSVSVAPGQTARITCSGDALGDKYASWYQQKPGQAPVLVIYEDSKRPSGIPERFSGSNSGNTATLTISGTQAEDEADYYCSVWDGDWGMPVFGGGTKLTVLG
5 fold

I'd like to know its Affinity change. The binder in question is AmeA2C3 (the mutated light chain has Lys at site 26 and Ala at site 89) (antibody, V domains shown, Mutant of Ame55; also called 26K + 89A) VH: EVQLVQSGAEVKKPGESLKISCKGSGYSFTSYWIGWVRQMPGKGLEWMGIIYPGDSDTRYSPSFQGQVTISADKSISTAYLQWSSLKASDTAMYYCARGIIYPSNVAVWGQGTLVTVSS VL: SYELTQPPSVSVAPGQTARITCSGDKLGDKYASWYQQKPGQAPVLVIYEDSKRPSGIPERFSGSNSGNTATLTISGTQAEDEADYYCSAWDGDWGMPVFGGGTKLTVLG
< 0.1 fold

For the binder shown here, Ame55 mutant, light chain 96A (antibody, V domains shown, Mutant of Ame55) VH: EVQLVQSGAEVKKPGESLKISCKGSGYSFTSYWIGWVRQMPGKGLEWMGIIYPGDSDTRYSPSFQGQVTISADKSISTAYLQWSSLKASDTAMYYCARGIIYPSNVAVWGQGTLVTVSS VL: SYELTQPPSVSVAPGQTARITCSGDALGDKYASWYQQKPGQAPVLVIYEDSKRPSGIPERFSGSNSGNTATLTISGTQAEDEADYYCSVWDGDWGAPVFGGGTKLTVLG , give the reported Affinity change.
> 10 fold

Requested read-out: Affinity change. Entry: Ame55 mutant, heavy chain 59A (antibody, V domains shown, Mutant of Ame55) VH: EVQLVQSGAEVKKPGESLKISCKGSGYSFTSYWIGWVRQMPGKGLEWMGIIYPGDSDTAYSPSFQGQVTISADKSISTAYLQWSSLKASDTAMYYCARGIIYPSNVAVWGQGTLVTVSS VL: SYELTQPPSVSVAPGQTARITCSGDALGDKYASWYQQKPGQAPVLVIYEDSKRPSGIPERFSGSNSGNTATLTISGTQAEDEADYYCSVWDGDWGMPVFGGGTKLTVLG
> 10 fold

# next binder below
Name the reported Affinity change value associated with the binder Ame55 mutant, heavy chain 99S (antibody, V domains shown, Mutant of Ame55) VH: EVQLVQSGAEVKKPGESLKISCKGSGYSFTSYWIGWVRQMPGKGLEWMGIIYPGDSDTRYSPSFQGQVTISADKSISTAYLQWSSLKASDTAMYYCARSIIYPSNVAVWGQGTLVTVSS VL: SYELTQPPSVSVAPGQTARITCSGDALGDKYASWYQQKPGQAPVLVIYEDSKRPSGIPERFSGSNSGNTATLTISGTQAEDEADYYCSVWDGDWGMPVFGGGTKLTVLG
> 10 fold
